List of TGI values.
System: SK-OV-3 ovarian
Experiment: NCI tumour cell line growth inhibition, 48 h

1) Cn1cc(C2=C(N3CCOCC3)C(=O)NC2=O)c2ccccc21 = > 25 µM
2) Cc1sc2nc3n(c(=O)c2c1C)N=CN(c1ccc(F)cc1)C3 = > 100 µM

Alright, here's another compound for you.
Query block: # get_value(readout= TGI, system= SK-OV-3 ovarian) for "CCCC(=O)[O-].N.N.N.N.N.[Co+3].[O-][Cl+3]([O-])([O-])[O-]"
Result block: > 100 µM

###

Test system: UO-31 renal
Assay: NCI tumour cell line growth inhibition, 48 h
List of TGI values.

Example cases with answers are listed next.
1. Cc1coc2c1C(OC(=O)C(C)C)C1(C)C(C)CCC(O)C1C2=O (centres undefined) = > 100 µM
2. C[N+](C)(CCNC(=O)c1cccc2cc3ccccc3nc12)Cc1ccc([N+](=O)[O-])s1 = > 25 µM

Query block: What does the record list as TGI for "C=CCn1c(-c2ccc([N+](=O)[O-])cc2)csc1=N" ?
Result block: > 100 µM

Query block: What does the record list as TGI for "c1ccc(CN2CCN3CCN(CC2)CCN(Cc2ccccc2)CC3)cc1" ?
Result block: > 81.5 µM
